- System: Aspergillus lentulus
- ASSAY_NOTES: Antimicrobial activity against Aspergillus lentulus isolate CNM-CM-3538 obtained from sputum of patient after 48 hrs by broth microdilution method
- Assay type: functional
- CONDITION_DETAILS: isolate CNM-CM-3538, 48 h
For each record, check the reported MIC: if it is below 8 µg/mL write 1.0, else write 0.0.

MOLECULE	CLASSIFICATION
C[C@@H](c1nc(-c2ccc(C#N)cc2)cs1)[C@](O)(Cn1cncn1)c1ccc(F)cc1F [RAVUCONAZOLE]	1.0
CCC(C)n1ncn(-c2ccc(N3CCN(c4ccc(OCC5COC(Cn6cncn6)(c6ccc(Cl)cc6Cl)O5)cc4)CC3)cc2)c1=O (stereo unspecified) [ITRACONAZOLE]	0.0
C[C@@H]1[C@H](O)[C@@H](C)/C=C/C=C/C=C/C=C/C=C/C=C/C=C/[C@H](O[C@@H]2O[C@H](C)[C@@H](O)[C@H](N)[C@@H]2O)C[C@@H]2O[C@](O)(C[C@@H](O)C[C@@H](O)[C@H](O)CC[C@@H](O)C[C@@H](O)CC(=O)O[C@H]1C)C[C@H](O)[C@H]2C(=O)O [AMPHOTERICIN B]	1.0
C[C@@H](c1ncncc1F)[C@](O)(Cn1cncn1)c1ccc(F)cc1F [VORICONAZOLE]	1.0
CN(C/C=C/C#CC(C)(C)C)Cc1cccc2ccccc12 [TERBINAFINE]	1.0
CC[C@@H]([C@H](C)O)n1ncn(-c2ccc(N3CCN(c4ccc(OC[C@@H]5CO[C@@](Cn6cncn6)(c6ccc(F)cc6F)C5)cc4)CC3)cc2)c1=O [POSACONAZOLE]	1.0

====

- System: Aspergillus lentulus
- ASSAY_NOTES: Antimicrobial activity against Aspergillus lentulus isolate CNM-CM-4387 obtained from sputum of patient after 48 hrs by broth microdilution method
- Assay type: functional
- CONDITION_DETAILS: isolate CNM-CM-4387, 48 h

COMPOUND	MIC, µg/mL
C[C@@H](c1nc(-c2ccc(C#N)cc2)cs1)[C@](O)(Cn1cncn1)c1ccc(F)cc1F	3
CN(C/C=C/C#CC(C)(C)C)Cc1cccc2ccccc12	0.5
C[C@@H]1[C@H](O)[C@@H](C)/C=C/C=C/C=C/C=C/C=C/C=C/C=C/[C@H](O[C@@H]2O[C@H](C)[C@@H](O)[C@H](N)[C@@H]2O)C[C@@H]2O[C@](O)(C[C@@H](O)C[C@@H](O)[C@H](O)CC[C@@H](O)C[C@@H](O)CC(=O)O[C@H]1C)C[C@H](O)[C@H]2C(=O)O	6
C[C@@H](c1ncncc1F)[C@](O)(Cn1cncn1)c1ccc(F)cc1F	4
CC[C@@H]([C@H](C)O)n1ncn(-c2ccc(N3CCN(c4ccc(OC[C@@H]5CO[C@@](Cn6cncn6)(c6ccc(F)cc6F)C5)cc4)CC3)cc2)c1=O	0.25
CCC(C)n1ncn(-c2ccc(N3CCN(c4ccc(OCC5COC(Cn6cncn6)(c6ccc(Cl)cc6Cl)O5)cc4)CC3)cc2)c1=O (stereo unspecified)	8

====

Quick reference: log10 of MIC of the listed items.
- Test system: Aspergillus lentulus
- ASSAY_NOTES: Antimicrobial activity against Aspergillus lentulus isolate CNM-CM-4330 obtained from sputum of patient after 48 hrs by broth microdilution method
- Assay type: functional
- CONDITION_DETAILS: isolate CNM-CM-4330, 48 h
PROPERTY_LABEL: log10 of MIC (log10 of the value in µg/mL)

MOLECULE	log10 of MIC
CC[C@@H]([C@H](C)O)n1ncn(-c2ccc(N3CCN(c4ccc(OC[C@@H]5CO[C@@](Cn6cncn6)(c6ccc(F)cc6F)C5)cc4)CC3)cc2)c1=O [POSACONAZOLE]	-0.92
CN(C/C=C/C#CC(C)(C)C)Cc1cccc2ccccc12 [TERBINAFINE]	-0.30
CCC(C)n1ncn(-c2ccc(N3CCN(c4ccc(OCC5COC(Cn6cncn6)(c6ccc(Cl)cc6Cl)O5)cc4)CC3)cc2)c1=O (stereo unspecified) [ITRACONAZOLE]	0.78
C[C@@H]1[C@H](O)[C@@H](C)/C=C/C=C/C=C/C=C/C=C/C=C/C=C/[C@H](O[C@@H]2O[C@H](C)[C@@H](O)[C@H](N)[C@@H]2O)C[C@@H]2O[C@](O)(C[C@@H](O)C[C@@H](O)[C@H](O)CC[C@@H](O)C[C@@H](O)CC(=O)O[C@H]1C)C[C@H](O)[C@H]2C(=O)O [AMPHOTERICIN B]	0.90
C[C@@H](c1ncncc1F)[C@](O)(Cn1cncn1)c1ccc(F)cc1F [VORICONAZOLE]	0.48
C[C@@H](c1nc(-c2ccc(C#N)cc2)cs1)[C@](O)(Cn1cncn1)c1ccc(F)cc1F [RAVUCONAZOLE]	0.18

====

- Tested on: Aspergillus lentulus
- ASSAY_NOTES: Antimicrobial activity against Aspergillus lentulus isolate CNM-CM-3599 obtained from sputum of patient after 48 hrs by broth microdilution method
- Format: functional
- CONDITION_DETAILS: isolate CNM-CM-3599, 48 h

MOLECULE	MIC
C[C@@H]1[C@H](O)[C@@H](C)/C=C/C=C/C=C/C=C/C=C/C=C/C=C/[C@H](O[C@@H]2O[C@H](C)[C@@H](O)[C@H](N)[C@@H]2O)C[C@@H]2O[C@](O)(C[C@@H](O)C[C@@H](O)[C@H](O)CC[C@@H](O)C[C@@H](O)CC(=O)O[C@H]1C)C[C@H](O)[C@H]2C(=O)O	2.66 µg/mL
CCC(C)n1ncn(-c2ccc(N3CCN(c4ccc(OCC5COC(Cn6cncn6)(c6ccc(Cl)cc6Cl)O5)cc4)CC3)cc2)c1=O (stereo unspecified)	0.5 µg/mL
C[C@@H](c1ncncc1F)[C@](O)(Cn1cncn1)c1ccc(F)cc1F	4 µg/mL
C[C@@H](c1nc(-c2ccc(C#N)cc2)cs1)[C@](O)(Cn1cncn1)c1ccc(F)cc1F	2 µg/mL
CN(C/C=C/C#CC(C)(C)C)Cc1cccc2ccccc12	1 µg/mL
CC[C@@H]([C@H](C)O)n1ncn(-c2ccc(N3CCN(c4ccc(OC[C@@H]5CO[C@@](Cn6cncn6)(c6ccc(F)cc6F)C5)cc4)CC3)cc2)c1=O	0.5 µg/mL
